From: patent US20080293727A1

Quick reference: pKi of the listed items.
# test.system: HIV-1 protease (Human immunodeficiency virus type 1 group M subtype B, UniProt P04585)
# method.summary: Inhibition constants against HIV-1 protease (method of Pennington et al.)
# Type: biochemical
# experimental.setup: HIV-1 protease; read-out: Ki value
Reminder that pKi means the negative base-10 logarithm of the concentration expressed in mol/L.

Observe how each entry below is paired with its result.
CC(C)CN(C[C@@H](O)[C@H](Cc1ccccc1)NC(=O)O[C@H](C)c1ccccc1)S(=O)(=O)c1cccc2nonc12 : 6.69
Nc1ccc(S(=O)(=O)N(CC2CCCC2)C[C@@H](O)[C@H](Cc2ccccc2)NC(=O)O[C@H]2CCOC2)c(N)c1 : 9.22
CC(=O)Nc1ccc(S(=O)(=O)N(CC(C)C)C[C@@H](O)[C@H](Cc2ccccc2)NC(=O)OCc2ccccc2)cc1 : 8.40

Challenge: Any idea what pKi came out for CC(=O)Nc1cc(S(=O)(=O)N(CC(C)C)C[C@@H](O)[C@H](Cc2ccccc2)NC(=O)c2cc(C(C)(C)C)nn2Cc2ccccc2)ccc1F on HIV-1 protease (Human immunodeficiency virus type 1 group M subtype B, UniProt P04585)?
Response given: 6.37

* * *

# test.system: UniProt P04585
# method.summary: Inhibition constants against HIV-1 protease (method of Pennington et al.)
# Type: biochemical
# experimental.setup: HIV-1 protease; read-out: Ki value
In this section we review reported Ki values for a set of compounds.

CC(=O)Nc1cccc(S(=O)(=O)N(CC(C)C)C[C@@H](O)[C@H](Cc2ccccc2)NC(=O)[C@H](CC(N)=O)NC(=O)c2ccc3ccccc3n2)c1 : < 0.1 nM
CC(C)CN(C[C@@H](O)[C@H](Cc1ccccc1)NC(=O)O[C@H]1CCOC1)S(=O)(=O)N1CCCCC1 : 6 nM
CC(=O)Nc1ccc(S(=O)(=O)N(CC(C)C)C[C@@H](O)[C@H](Cc2ccccc2)NC(=O)[C@@H]2CC(=O)NC(=O)N2)cc1 : 1100 nM
CC(C)CN(C[C@@H](O)[C@H](Cc1ccccc1)NC(=O)O[C@H]1CCOC1)S(=O)(=O)c1cccnc1 : 8 nM
O=C(N[C@@H](Cc1ccccc1)[C@H](O)CN(CC1CCCC1)S(=O)(=O)c1ccc(F)cc1)OCc1cccnc1 : 0.3 nM
CC(C)CN(C[C@@H](O)[C@H](Cc1ccccc1)NC(=O)[C@H](CC(N)=O)NC(=O)c1ccc2ccccc2n1)S(=O)(=O)c1cc(S(=O)(=O)c2ccccc2)cs1 : 0.2 nM

Challenge: Could you tell me which Ki is on file for O=C(N[C@@H](Cc1ccccc1)[C@H](O)CN(CC1CCCCC1)S(=O)(=O)c1ccc(F)cc1)O[C@H]1CCOC1 ?
Response given: 0.2 nM

Challenge: And what about the compound CC(=O)Nc1cc(S(=O)(=O)N(CC(C)C)C[C@@H](O)[C@H](Cc2ccccc2)NC(=O)OC(C)(C)C)ccc1F ?
Response given: 22 nM

* * *

# test.system: UniProt:P04585
# method.summary: Inhibition constants against HIV-1 protease (method of Pennington et al.)
# Type: biochemical
# experimental.setup: HIV-1 protease; read-out: Ki value
measure: Ki (nM)
Lab book: enter the figure in nM, no units written.

O=C(NC(Cc1ccccc1)C(O)CN(CC1CCCO1)S(=O)(=O)c1ccc(F)cc1)OC1CCOC1 (stereo not drawn) [Compound 132] : 6
O=C(N[C@@H](Cc1ccccc1)[C@H](O)CN(CC1CCCC1)S(=O)(=O)c1ccc([N+](=O)[O-])cc1[N+](=O)[O-])O[C@H]1CCOC1 [Compound 172] : 21
CC(=O)Nc1ccc(S(=O)(=O)N(CC(C)C)C[C@@H](O)[C@H](Cc2ccccc2)NC(=O)OC(C)(C)C)cc1 [Compound 39] : 17

Challenge: For the compound NC(=O)C[C@H](NC(=O)c1ccc2ccccc2n1)C(=O)N[C@@H](Cc1ccccc1)[C@H](O)CN(Cc1ccccc1)S(=O)(=O)c1ccccc1 [Compound 1] , what Ki is on record?
Response given: 4
